- ASSAY_DETAILS: solvent given as SMILES
- CONDITION_LABEL: in C1CCC(C2CCCCC2)CC1
READOUT_KIND: solvation free energy, 298 K (kcal/mol)
Numbers only, in kcal/mol.

Observe how each entry below is paired with its result.
`C1CCCCC1` has a reported solvation free energy, 298 K of -4.09

`C=CCCCCC` has a reported solvation free energy, 298 K of -4.33

`c1ccccc1` has a reported solvation free energy, 298 K of -3.96

Next, consider the following compound.
`C1=CCCCC1` has a reported solvation free energy, 298 K of -4.18

###

- ASSAY_DETAILS: solvent given as SMILES
- CONDITION_LABEL: in C=CCCCCCCCCCCCCCC
Would you mind telling me the reported solvation free energy, 298 K of each entry?
Answers are plain numbers, in kcal/mol.

Go through the items and report each one's solvation free energy, 298 K.
1. Cc1ccccc1
2. CCC(C)Br (centres undefined)
3. CC12CCC(=O)C=C1CCC1C2C(O)CC2(C)C1CCC2(O)C(=O)CO (centres undefined)
4. C=CCC(C)(C)C

RESULT:
1. -4.57
2. -3.96
3. -20.9
4. -3.59

Go through the items and report each one's solvation free energy, 298 K.
1. CCBr
2. CCCI
3. C=CCCC=C
4. ClC(Cl)(Cl)Cl

RESULT:
-2.91
-4.16
-3.36
-3.81

Go through the items and report each one's solvation free energy, 298 K.
1. CC[N+](=O)[O-]
2. CCC(C)C
3. CCCOCCC
4. ClCCl
5. CCCBr
6. CC(C)(C)Cl
7. CC(C)C(C)(C)C

RESULT:
1: -3.33; 2: -2.66; 3: -4; 4: -2.77; 5: -3.56; 6: -3.07; 7: -3.77

###

- ASSAY_DETAILS: solvent given as SMILES
- CONDITION_LABEL: in CCCCCCCCCC
READOUT_KIND: solvation free energy, 298 K (kcal/mol)
Numbers only, in kcal/mol.

Observe how each entry below is paired with its result.
`c1ccc2c(c1)-c1cccc3cccc-2c13` has a reported solvation free energy, 298 K of -11.7

`CCCCOC(C)=O` has a reported solvation free energy, 298 K of -4.75

Go through the items and report each one's solvation free energy, 298 K.
1. [N-]=[N+]=O
2. O=C1c2ccccc2C(=O)c2c(Cl)cccc21

RESULT:
1. -0.49
2. -12.4

Go through the items and report each one's solvation free energy, 298 K.
1. CCCCC(C)(C)O
2. CCCO

RESULT:
1. -5.22
2. -2.76

Go through the items and report each one's solvation free energy, 298 K.
1. CC(=O)CC(=O)c1ccccc1
2. CCCC(C)(O)CC (stereo not drawn)
3. O=O

RESULT:
[-7.76, -5.34, 0.77]

Go through the items and report each one's solvation free energy, 298 K.
1. CNC
2. O=[N+]([O-])c1cccc(O)c1
3. C1CCCC1
4. O=[N+]([O-])c1cc(Cl)ccc1Cl

RESULT:
1: -2.31; 2: -7.74; 3: -3.46; 4: -7.74

###

- ASSAY_DETAILS: solvent given as SMILES
- CONDITION_LABEL: in CO
Would you mind telling me the reported solvation free energy, 298 K of each entry?
Numbers only, in kcal/mol.

Observe how each entry below is paired with its result.
`c1ccc2c(c1)-c1cccc3cccc-2c13` has a reported solvation free energy, 298 K of -11.2

`CC(C)CC(C)C` has a reported solvation free energy, 298 K of -2.99

`CC=O` has a reported solvation free energy, 298 K of -4.83

`CC(=O)Oc1ccccc1C(=O)O` has a reported solvation free energy, 298 K of -14.1

`CCCC(=O)CCC` has a reported solvation free energy, 298 K of -5.77

Go through the items and report each one's solvation free energy, 298 K.
1. FS(F)(F)(F)(F)F
2. O=C(O)CCCCC(=O)O
3. CCCC=O
4. O=O
5. [N-]=[N+]=O

RESULT:
1. 0.26
2. -14
3. -4.34
4. 0.82
5. -0.69

###

- ASSAY_DETAILS: solvent given as SMILES
- CONDITION_LABEL: in Cc1cccc(C)c1
READOUT_KIND: solvation free energy, 298 K (kcal/mol)
Give bare numbers, in kcal/mol.

Observe how each entry below is paired with its result.
`ClCCl` has a reported solvation free energy, 298 K of -3.58

`O=O` has a reported solvation free energy, 298 K of 0.85

`II` has a reported solvation free energy, 298 K of -6.25

`Oc1cccc(Cl)c1` has a reported solvation free energy, 298 K of -8.05

`ClCCCl` has a reported solvation free energy, 298 K of -4.45

`CCCO` has a reported solvation free energy, 298 K of -3.72

`C=CCC` has a reported solvation free energy, 298 K of -2.3

`ClC(Cl)(Cl)Cl` has a reported solvation free energy, 298 K of -4.29

Go through the items and report each one's solvation free energy, 298 K.
1. CC(C)CO
2. CCCCCO

RESULT:
1. -4.1
2. -5.21

###

- ASSAY_DETAILS: solvent given as SMILES
- CONDITION_LABEL: in CCCCCCCCCCCCCCCC
Would you mind telling me the reported solvation free energy, 298 K of each entry?
The reply should consist of the numeric value with the unit placed after it.

`CCCO` has a reported solvation free energy, 298 K of -2.7 kcal/mol

Go through the items and report each one's solvation free energy, 298 K.
1. CCCCCC#N
2. CCC(C)C
3. Cc1ccccc1C
4. C1CCCCCC1

RESULT:
1: -4.68 kcal/mol; 2: -2.76 kcal/mol; 3: -5.38 kcal/mol; 4: -4.83 kcal/mol

Go through the items and report each one's solvation free energy, 298 K.
1. CC(C)CO
2. CC(C)C#N

RESULT:
1. -3.25 kcal/mol
2. -3.08 kcal/mol

###

- ASSAY_DETAILS: solvent given as SMILES
- CONDITION_LABEL: in CS(C)=O
Would you mind telling me the reported solvation free energy, 298 K of each entry?

`ClC(Cl)(Cl)Cl` has a reported solvation free energy, 298 K of -3.66 kcal/mol

Go through the items and report each one's solvation free energy, 298 K.
1. C=C
2. O=C=O
3. C=CCCC=C
4. O=S=O
5. C1=CCCCC1

RESULT:
1. -0.05 kcal/mol
2. -0.69 kcal/mol
3. -2.74 kcal/mol
4. -4.71 kcal/mol
5. -3.13 kcal/mol

###

Would you mind telling me the reported solvation free energy, 298 K of each entry?
- ASSAY_DETAILS: solvent given as SMILES
- CONDITION_LABEL: in Brc1ccccc1
Answers are plain numbers, in kcal/mol.

`CC(C)CO` has a reported solvation free energy, 298 K of -4.23

`[2H][2H]` has a reported solvation free energy, 298 K of 1.76

`II` has a reported solvation free energy, 298 K of -6.1

Go through the items and report each one's solvation free energy, 298 K.
1. S
2. CC(C)CC(C)C

RESULT:
[-1.3, -3.81]

Go through the items and report each one's solvation free energy, 298 K.
1. COC
2. CCCCCO

RESULT:
1. -2.1
2. -5.42

###

- ASSAY_DETAILS: solvent given as SMILES
- CONDITION_LABEL: in CNC=O
Would you mind telling me the reported solvation free energy, 298 K of each entry?
One number for each entry, in kcal/mol.

`CC(C)OC(C)C` has a reported solvation free energy, 298 K of -3.04

`C=CCCC` has a reported solvation free energy, 298 K of -1.98

`C1CCCCC1` has a reported solvation free energy, 298 K of -2.93

Go through the items and report each one's solvation free energy, 298 K.
1. CCCC(C)C
2. FS(F)(F)(F)(F)F
3. CC(C)CC(C)C
4. Cc1ccccc1
5. O=O
6. C=C
7. c1ccccc1
8. Cc1ccc(C)cc1

RESULT:
-2.24
1.02
-2.49
-4.35
1.12
-0.2
-3.83
-4.8

Go through the items and report each one's solvation free energy, 298 K.
1. CCC(C)C
2. c1cc2c3c(cccc3c1)CC2
3. COC(=O)c1ccc(O)cc1
4. Cc1ccccc1C
5. C1=CCCCC1
6. CC(C)(C)Cl

RESULT:
1. -1.57
2. -8.5
3. -12.7
4. -5.02
5. -3.26
6. -3.02

###

- ASSAY_DETAILS: solvent given as SMILES
- CONDITION_LABEL: in CC1CCS(=O)(=O)C1
Would you mind telling me the reported solvation free energy, 298 K of each entry?
One number for each entry, in kcal/mol.

Observe how each entry below is paired with its result.
`Cc1ccccc1` has a reported solvation free energy, 298 K of -4.64

`CC(C)CC(C)(C)C` has a reported solvation free energy, 298 K of -2.59

`C1CCCCC1` has a reported solvation free energy, 298 K of -2.73

***
`c1ccccc1` has a reported solvation free energy, 298 K of -4.11
